For each record, write down the corresponding pIC50.
pIC50: −log10 of the molar value.

Measured on Cytochrome P450 2C9 (Homo sapiens), Cc1nnc(C(C)C)n1[C@@H]1C[C@H]2CC[C@@H](C1)N2CC[C@H](NC(=O)C1CCCC1)c1cccs1 has a documented pIC50 of < 4.60

Record Cc1nnc(C(C)C)n1[C@@H]1C[C@H]2CC[C@@H](C1)N2CC[C@H](NC(=O)C1CCCCC1)c1cccs1 ; system Cytochrome P450 2C9 (Homo sapiens); pIC50 = < 4.60

Item Cc1nnc(C(C)C)n1[C@@H]1C[C@H]2CC[C@@H](C1)N2CC[C@H](NC(=O)C1CCC(F)(F)CC1)c1ccsc1 ; assay system Cytochrome P450 2C9 (Homo sapiens); pIC50 reported as < 4.60

Item Cc1nnc(C(C)C)n1[C@@H]1C[C@H]2CC[C@@H](C1)N2CC[C@H](NC(=O)C1CCC(F)(F)CC1)c1cccs1 was tested on Cytochrome P450 2C9 (Homo sapiens); the reported pIC50 is < 4.60

The reported pIC50 value, Cytochrome P450 2C9 (Homo sapiens), for Cc1ccc([C@H](CCN2[C@@H]3CC[C@H]2C[C@H](n2c(C)nnc2C(C)C)C3)NC(=O)C2CCC(F)(F)CC2)s1 reads < 4.60
